These measurements were taken from paper PMC2741010.

- TESTED_TARGET: RNase AECP (RNase A with loop 1 from ECP) (Bos taurus, UniProt P61823, DEL40-47/INS50PP/S49L/Y51R)
- Sequence (P61823 with tags, fused parts or gaps DEL40-47/S49L/INS50PP/Y51R): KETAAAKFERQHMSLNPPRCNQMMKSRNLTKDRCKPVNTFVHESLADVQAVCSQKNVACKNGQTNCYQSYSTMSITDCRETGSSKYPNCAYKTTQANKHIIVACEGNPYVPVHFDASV
- PROTOCOL: 3′-CMP titration followed by 1H-15N HSQC, NMR line shape analysis
QUANTITY: Kd (µM)
Write the value in µM as a bare number.

For the compound shown here, Nc1ccn([C@@H]2O[C@H](CO)[C@@H](OP(=O)(O)O)[C@H]2O)c(=O)n1 [3′-CMP, cytidine-3′-monophosphate] , give the reported Kd.
300

* * *

- TESTED_TARGET: RNase A (H48A) (Bos taurus, UniProt P61823, H74A)
- PROTOCOL: 3′-CMP titration followed by 1H-15N HSQC, NMR line shape analysis
QUANTITY: Kd (µM)
Answer format: numeric, µM implied, no suffix.

So what does the record say about Kd for Nc1ccn([C@@H]2O[C@H](CO)[C@@H](OP(=O)(O)O)[C@H]2O)c(=O)n1 [3′-CMP, cytidine-3′-monophosphate] ?
895
